Molecular target: NLK (Homo sapiens, UniProt Q9UBE8)
Sequence (Q9UBE8 whole entry): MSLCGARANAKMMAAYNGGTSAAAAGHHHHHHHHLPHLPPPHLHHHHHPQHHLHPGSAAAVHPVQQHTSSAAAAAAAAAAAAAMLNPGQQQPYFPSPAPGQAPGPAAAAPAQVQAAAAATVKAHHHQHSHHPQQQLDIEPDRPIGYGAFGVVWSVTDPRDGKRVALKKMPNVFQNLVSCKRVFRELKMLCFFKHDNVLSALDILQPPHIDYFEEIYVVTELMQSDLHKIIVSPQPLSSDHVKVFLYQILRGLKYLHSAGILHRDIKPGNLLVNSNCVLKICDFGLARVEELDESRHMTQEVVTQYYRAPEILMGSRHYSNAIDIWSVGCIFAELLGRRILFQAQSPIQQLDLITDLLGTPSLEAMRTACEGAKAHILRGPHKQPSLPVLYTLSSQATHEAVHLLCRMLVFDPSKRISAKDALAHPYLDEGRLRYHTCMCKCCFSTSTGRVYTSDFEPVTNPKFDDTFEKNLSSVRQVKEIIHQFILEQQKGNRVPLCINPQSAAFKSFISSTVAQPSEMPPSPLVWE
EXPERIMENTAL_ENDPOINT: Ki

Supply Ki measured with NLK (Homo sapiens, UniProt Q9UBE8) for CN(C)c1cc(-c2ccncc2)c(-c2cccc3ccccc23)nn1 .
199 nM

====

Assay: Acid dissociation constant (pKa)
Type: physicochemical
Conditions: water with methanol co-solvent, ionic strength 0.15 M KCl, 22±2°C, read-out: pKa (potentiometric method), second value
EXPERIMENTAL_ENDPOINT: pKa

Please report pKa for the following compound: CN(C)c1cc(-c2ccncc2)c(-c2cccc3ccccc23)nn1
< 3.5

====

Biological target: Flt4 (Homo sapiens)
Sequence (P35916 25-1363): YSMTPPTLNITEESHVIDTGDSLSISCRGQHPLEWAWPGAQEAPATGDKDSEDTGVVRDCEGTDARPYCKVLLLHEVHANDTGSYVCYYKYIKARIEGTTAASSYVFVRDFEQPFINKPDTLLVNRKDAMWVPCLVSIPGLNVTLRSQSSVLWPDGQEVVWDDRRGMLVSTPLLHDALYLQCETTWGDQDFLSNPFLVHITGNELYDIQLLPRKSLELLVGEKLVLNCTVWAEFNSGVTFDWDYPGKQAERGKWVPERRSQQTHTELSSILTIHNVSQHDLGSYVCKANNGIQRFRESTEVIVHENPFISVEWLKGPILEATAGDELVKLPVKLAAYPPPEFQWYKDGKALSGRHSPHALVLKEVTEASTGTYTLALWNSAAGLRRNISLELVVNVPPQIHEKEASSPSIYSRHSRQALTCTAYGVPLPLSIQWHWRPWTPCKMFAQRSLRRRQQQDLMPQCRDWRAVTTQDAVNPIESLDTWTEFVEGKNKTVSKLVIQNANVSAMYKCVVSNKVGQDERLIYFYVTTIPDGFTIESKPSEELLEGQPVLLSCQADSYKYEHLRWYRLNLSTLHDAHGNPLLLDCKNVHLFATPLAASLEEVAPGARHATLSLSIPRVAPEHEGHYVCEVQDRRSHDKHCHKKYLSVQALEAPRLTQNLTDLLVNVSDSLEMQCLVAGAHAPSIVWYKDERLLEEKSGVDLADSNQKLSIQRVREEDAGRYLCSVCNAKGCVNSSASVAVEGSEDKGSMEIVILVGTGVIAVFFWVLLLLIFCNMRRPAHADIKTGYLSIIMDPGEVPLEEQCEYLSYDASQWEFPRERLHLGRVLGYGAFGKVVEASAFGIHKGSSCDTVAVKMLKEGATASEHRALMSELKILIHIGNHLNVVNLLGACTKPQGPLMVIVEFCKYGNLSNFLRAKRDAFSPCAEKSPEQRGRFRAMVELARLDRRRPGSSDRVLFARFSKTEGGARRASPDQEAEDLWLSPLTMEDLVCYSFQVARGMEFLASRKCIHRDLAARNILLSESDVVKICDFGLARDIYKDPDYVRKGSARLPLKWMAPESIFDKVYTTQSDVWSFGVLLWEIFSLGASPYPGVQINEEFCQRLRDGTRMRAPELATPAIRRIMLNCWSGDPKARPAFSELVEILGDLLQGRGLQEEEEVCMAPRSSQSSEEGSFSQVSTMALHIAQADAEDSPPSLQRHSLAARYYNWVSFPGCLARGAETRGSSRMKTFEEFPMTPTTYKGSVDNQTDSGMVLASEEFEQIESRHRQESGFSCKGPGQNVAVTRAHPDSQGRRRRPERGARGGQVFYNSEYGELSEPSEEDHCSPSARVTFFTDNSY
EXPERIMENTAL_ENDPOINT: IC50
Dear colleague, please send the value followed by its unit.

Supply IC50 measured with Flt4 (Homo sapiens) for CN(C)c1cc(-c2ccncc2)c(-c2ccc3ccccc3c2)nn1 .
4.91 µM

====

Experiment: Aqueous solubility
Type: physicochemical
Settings: water, 37 °C, water, thermodynamic from solid, compound (not the salt), 24 h; read-out: Aqueous Solubility (37ºC)
EXPERIMENTAL_ENDPOINT: solubility at 24 h (µM)
Return type: number; implicit unit µM.

Please report solubility at 24 h for the following compound: CN(C)c1cc(-c2ccncc2)c(-c2cccc3ccccc23)nn1
205

====

Biological target: JNK3 (Homo sapiens)
Sequence (P53779 whole entry): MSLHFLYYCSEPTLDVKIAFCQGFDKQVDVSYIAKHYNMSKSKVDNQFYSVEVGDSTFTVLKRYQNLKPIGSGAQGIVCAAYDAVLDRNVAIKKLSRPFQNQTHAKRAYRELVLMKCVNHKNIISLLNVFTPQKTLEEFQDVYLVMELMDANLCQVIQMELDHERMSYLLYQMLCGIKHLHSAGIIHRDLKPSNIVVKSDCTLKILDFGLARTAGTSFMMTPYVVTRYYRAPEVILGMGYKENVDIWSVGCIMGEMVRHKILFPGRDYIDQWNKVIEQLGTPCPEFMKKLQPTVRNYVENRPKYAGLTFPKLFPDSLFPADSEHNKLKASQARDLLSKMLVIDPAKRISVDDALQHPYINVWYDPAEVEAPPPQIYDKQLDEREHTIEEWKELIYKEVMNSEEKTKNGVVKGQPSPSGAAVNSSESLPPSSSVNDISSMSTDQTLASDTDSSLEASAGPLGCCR
Assay: Kinome profiler screen
Assay type: biochemical
Details: concentration-dependent follow-up of profiler hit; read-out: IC50
EXPERIMENTAL_ENDPOINT: IC50 (nM)
Return type: number; implicit unit nM.

Please report IC50 for the following compound: CN(C)c1cc(-c2ccncc2)c(-c2cccc3ccccc23)nn1
2400

====

Target: EphA7 (Homo sapiens, UniProt Q15375)
Sequence (Q15375 28-998): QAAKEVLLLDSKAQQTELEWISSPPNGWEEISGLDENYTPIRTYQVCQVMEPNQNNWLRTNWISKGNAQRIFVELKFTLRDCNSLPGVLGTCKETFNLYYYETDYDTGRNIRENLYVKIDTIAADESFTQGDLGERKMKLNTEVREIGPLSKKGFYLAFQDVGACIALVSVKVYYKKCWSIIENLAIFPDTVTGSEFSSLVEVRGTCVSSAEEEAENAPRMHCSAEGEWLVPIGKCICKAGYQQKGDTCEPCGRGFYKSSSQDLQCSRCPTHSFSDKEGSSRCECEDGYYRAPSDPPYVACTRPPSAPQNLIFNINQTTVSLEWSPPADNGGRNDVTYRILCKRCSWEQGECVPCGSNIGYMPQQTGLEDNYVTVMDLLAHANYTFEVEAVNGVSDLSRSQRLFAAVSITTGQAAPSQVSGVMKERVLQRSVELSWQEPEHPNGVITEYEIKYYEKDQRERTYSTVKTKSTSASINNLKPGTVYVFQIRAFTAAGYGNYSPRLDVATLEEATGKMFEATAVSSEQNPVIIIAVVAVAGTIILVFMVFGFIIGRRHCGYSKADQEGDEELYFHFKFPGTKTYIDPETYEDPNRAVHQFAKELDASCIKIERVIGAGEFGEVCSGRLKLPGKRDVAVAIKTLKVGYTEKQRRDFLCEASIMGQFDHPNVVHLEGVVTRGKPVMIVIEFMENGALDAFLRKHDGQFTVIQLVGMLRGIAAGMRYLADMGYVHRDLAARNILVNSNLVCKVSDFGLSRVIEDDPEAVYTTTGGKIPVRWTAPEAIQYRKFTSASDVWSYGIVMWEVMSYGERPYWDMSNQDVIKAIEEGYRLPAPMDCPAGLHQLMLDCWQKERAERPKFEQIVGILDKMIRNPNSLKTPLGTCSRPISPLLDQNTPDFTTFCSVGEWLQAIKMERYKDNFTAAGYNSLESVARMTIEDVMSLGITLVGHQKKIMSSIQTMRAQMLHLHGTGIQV
EXPERIMENTAL_ENDPOINT: IC50 (µM)
Return type: number; implicit unit µM.

Supply IC50 measured with EphA7 (Homo sapiens, UniProt Q15375) for CN(C)c1cc(-c2ccncc2)c(-c2ccc3ccccc3c2)nn1 .
18.9

====

Molecular target: PI3K-C2α (Homo sapiens)
Sequence (O00443 whole entry): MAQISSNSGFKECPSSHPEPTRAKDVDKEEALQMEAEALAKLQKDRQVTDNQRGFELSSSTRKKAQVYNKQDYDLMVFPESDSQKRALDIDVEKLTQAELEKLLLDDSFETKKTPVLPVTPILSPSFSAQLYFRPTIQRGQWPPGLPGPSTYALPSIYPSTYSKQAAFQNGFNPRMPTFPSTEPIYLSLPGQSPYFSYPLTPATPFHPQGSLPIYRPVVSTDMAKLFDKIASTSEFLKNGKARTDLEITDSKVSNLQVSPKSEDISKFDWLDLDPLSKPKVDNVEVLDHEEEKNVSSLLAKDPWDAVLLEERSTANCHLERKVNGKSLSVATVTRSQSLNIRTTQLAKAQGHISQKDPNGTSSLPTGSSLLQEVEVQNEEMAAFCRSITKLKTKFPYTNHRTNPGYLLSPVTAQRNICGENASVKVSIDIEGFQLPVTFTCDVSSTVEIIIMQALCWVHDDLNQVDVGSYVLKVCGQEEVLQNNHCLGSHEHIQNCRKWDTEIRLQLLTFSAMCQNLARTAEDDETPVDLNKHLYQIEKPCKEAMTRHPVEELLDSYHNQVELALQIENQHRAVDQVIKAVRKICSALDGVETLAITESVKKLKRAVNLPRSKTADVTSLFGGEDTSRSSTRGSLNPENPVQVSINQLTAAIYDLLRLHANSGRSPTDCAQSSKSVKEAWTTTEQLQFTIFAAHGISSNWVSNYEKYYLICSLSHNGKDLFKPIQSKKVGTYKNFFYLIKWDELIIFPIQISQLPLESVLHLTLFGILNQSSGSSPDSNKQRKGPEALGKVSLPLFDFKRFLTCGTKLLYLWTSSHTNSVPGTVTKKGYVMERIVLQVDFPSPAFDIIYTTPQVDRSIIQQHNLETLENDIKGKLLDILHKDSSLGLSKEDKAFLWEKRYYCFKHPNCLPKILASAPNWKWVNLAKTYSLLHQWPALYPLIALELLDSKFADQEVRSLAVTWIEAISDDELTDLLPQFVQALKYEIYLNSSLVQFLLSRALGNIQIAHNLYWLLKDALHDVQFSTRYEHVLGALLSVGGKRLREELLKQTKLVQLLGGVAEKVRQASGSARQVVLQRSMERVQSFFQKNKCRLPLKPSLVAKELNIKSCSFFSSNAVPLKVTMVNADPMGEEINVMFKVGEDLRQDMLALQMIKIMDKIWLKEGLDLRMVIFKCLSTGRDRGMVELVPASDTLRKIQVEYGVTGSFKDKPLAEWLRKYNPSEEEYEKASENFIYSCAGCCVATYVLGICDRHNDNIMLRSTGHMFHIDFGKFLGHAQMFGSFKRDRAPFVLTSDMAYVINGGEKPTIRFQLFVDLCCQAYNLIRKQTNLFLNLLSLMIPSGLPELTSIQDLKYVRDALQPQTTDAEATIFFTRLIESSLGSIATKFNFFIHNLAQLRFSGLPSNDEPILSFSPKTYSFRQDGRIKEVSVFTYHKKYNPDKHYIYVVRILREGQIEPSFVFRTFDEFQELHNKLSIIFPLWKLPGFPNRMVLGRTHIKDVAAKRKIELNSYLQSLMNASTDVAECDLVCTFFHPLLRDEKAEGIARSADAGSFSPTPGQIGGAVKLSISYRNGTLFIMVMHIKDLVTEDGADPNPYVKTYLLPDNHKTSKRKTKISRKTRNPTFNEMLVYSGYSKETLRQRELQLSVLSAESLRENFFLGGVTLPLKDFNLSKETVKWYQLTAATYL
EXPERIMENTAL_ENDPOINT: IC50

Supply IC50 measured with PI3K-C2α (Homo sapiens) for CN(C)c1cc(-c2ccncc2)c(-c2ccc3ccccc3c2)nn1 [MW108] .
> 30 µM
